Provide the recorded MIC for the entries that follow.
test system: T. menta. 9129; assay: In vitro antifungal activity, MIC (modified Autotiter method); assay type: cell-based, Trichophyton mentagrophytes; details: Trichophyton mentagrophytes, 20 h, 18-20 hours at 37° C.; read-out: MIC T. menta. 9129
The response must be a number in µg/mL with no trailing unit.

Q) Dear colleague, I am looking for the recorded MIC of the following molecule: CCCCCCNc1cc[n+](CCCCCCCCCCCCCC[n+]2ccc(NCCCCCC)cc2)cc1
A) 0.76

Q) Need MIC of CCCCCCCCCCCCNc1cc[n+](CCCCCCCCCCCC[n+]2ccc(NCCCCCCCCCCCC)cc2)cc1 , thanks.
A) 15.6

Q) Could you share which MIC value was measured for Clc1ccc(Nc2cc[n+](CCCCC[n+]3ccc(Nc4ccc(Cl)cc4)cc3)cc2)cc1 ?
A) 15.6

Q) What measured MIC goes with Nc1cc[n+](CCCCCCCCCCCC[n+]2ccc(N)cc2)cc1 [V, reference compound] ?
A) 3.9

Q) Form field: reported MIC of CCCCCCCCNc1cc[n+](CCCCCCCCCC[n+]2ccc(NCCCCCCCC)cc2)cc1 [10A,B]
A) 1.95

Q) Fill blank: measured MIC of the molecule c1c[n+](CCCC[n+]2ccc(NC3CCCCC3)cc2)ccc1NC1CCCCC1 is ____.
A) 125

Q) Consider the molecule shown here: CCCCCCNc1cc[n+](CCCCCCC[n+]2ccc(NCCCCCC)cc2)cc1 What is its recorded MIC?
A) 15.6

Q) What value of MIC has been reported for the following molecule? CCCCCCCNc1cc[n+](CCCCC[n+]2ccc(NCCCCCCC)cc2)cc1
A) 7.8

Q) Bench note: what MIC did CCCCCCCCCCCCNc1cc[n+](CCCCCCC[n+]2ccc(NCCCCCCCCCCCC)cc2)cc1 show?
A) 7.8

Q) // MIC lookup, key: Clc1ccc(Nc2cc[n+](CCCCCCCC[n+]3ccc(Nc4ccc(Cl)cc4)cc3)cc2)cc1 [Example 78B]
A) 31.3

Q) Quick one: MIC for Nc1cc[n+](CCCCCCCC[n+]2ccc(N)cc2)cc1 [I, reference compound] ?
A) 125

Q) MIC for CCCCC(CC)CNc1cc[n+](CCCCC[n+]2ccc(NCC(CC)CCCC)cc2)cc1 (stereo not drawn) ?
A) 7.8

Q) Report MIC for CCCCCCCCCCNc1cc[n+](CCCCCCCCCCCC[n+]2ccc(NCCCCCCCCCC)cc2)cc1 please.
A) 3.9

Q) Endpoint output: MIC of CCCNc1cc[n+](CCCCCCCCCC[n+]2ccc(NCCC)cc2)cc1 . Value?
A) 1

Q) Suppose we examine the molecule Cc1cc(N)cc[n+]1CCCCCCCCC[n+]1ccc(N)cc1C [IX, reference compound] ; what MIC value has been reported?
A) 7.8

Q) Give the measured MIC of CCCCCCCNc1cc[n+](CCCC[n+]2ccc(NCCCCCCC)cc2)cc1 .
A) 3.9

Q) Look up MIC for this molecule: CCCCCCCNc1cc[n+](CCCCCCC[n+]2ccc(NCCCCCCC)cc2)cc1
A) 3.9

Q) Need MIC of CCCCC(CC)CNc1cc[n+](CCCCCCCCC[n+]2ccc(NCC(CC)CCCC)cc2)cc1 (stereo not drawn) , thanks.
A) 0.98

Q) Look at this molecule and give its reported MIC. c1c[n+](CCCCCCCC[n+]2ccc(NC3CCCCC3)cc2)ccc1NC1CCCCC1
A) 3.9

Q) Bench note: what MIC did c1c[n+](CCCCCCCCCC[n+]2ccc(NC3CCCCC3)cc2)ccc1NC1CCCCC1 show?
A) 1.95

Q) What value of measured MIC is listed for CCCCC(CC)CNc1cc[n+](CCCCCCC[n+]2ccc(NCC(CC)CCCC)cc2)cc1 (stereo not drawn) ?
A) 1.95

Q) I have this molecule here, CCCCCCCCCNc1cc[n+](CCCCCCC[n+]2ccc(NCCCCCCCCC)cc2)cc1 , and I need its recorded MIC.
A) 1

Q) Name the reported MIC value associated with the molecule Fc1ccc(Nc2cc[n+](CCCCCCCC[n+]3ccc(Nc4ccc(F)cc4)cc3)cc2)cc1
A) 15.6

Q) Bench note: what MIC did CC(CCCCCCCCC[n+]1ccc(N)cc1)[n+]1ccc(N)cc1 (stereo not drawn) [VI, reference compound] show?
A) 15.6

Q) Need MIC, item CCCCCCCCCCCCNc1cc[n+](CCCCCCCCC[n+]2ccc(NCCCCCCCCCCCC)cc2)cc1
A) 7.8

Q) Would you kindly share the measured MIC for Clc1ccc(Nc2cc[n+](CCCCCCCCCC[n+]3ccc(Nc4ccc(Cl)cc4)cc3)cc2)cc1 [Example 79B] ?
A) 6.25

Q) Fill in the blank: the reported MIC of CCCCCCCCCNc1cc[n+](CCCCCCCCCC[n+]2ccc(NCCCCCCCCC)cc2)cc1 is ____.
A) 1.95

Q) What value of measured MIC is listed for Clc1ccc(Nc2cc[n+](CCCCCCCCC[n+]3ccc(Nc4ccc(Cl)cc4)cc3)cc2)cc1 ?
A) 3.9

Q) # query: MIC of entry CCCCCCCCCNc1cc[n+](CCCCCCCCC[n+]2ccc(NCCCCCCCCC)cc2)cc1
A) 1.95

Q) # get_value(readout='MIC', item= CCCCCCCCCCCCNc1cc[n+](CCCCCC[n+]2ccc(NCCCCCCCCCCCC)cc2)cc1 )
A) 7.8

Q) So what does the record say about MIC for CCCCCCCNc1cc[n+](CCCCCC[n+]2ccc(NCCCCCCC)cc2)cc1 ?
A) 3.13

Q) Please look up its MIC: CCCCCCCCCNc1cc[n+](CCCCCCCCCCCC[n+]2ccc(NCCCCCCCCC)cc2)cc1
A) 1.95

Q) // query MIC value for entry CCCCCCCNc1cc[n+](CCCCCCCCC[n+]2ccc(NCCCCCCC)cc2)cc1
A) 0.5
